Tested on: T47D
assay explanation: NCI tumour cell line growth inhibition, 48 h
Activity calls are given as the source filed them. No stated cut-off is given here; in the data, active = GI50 up to about 1.1 µM and inactive = higher.
Outcomes: t = active, f = inactive

{"columns": ["compound", "system under test", "label value"],
 "data": [
  ["O=C(O)CSCC(=O)c1ccccc1", "T47D", "f"],
  ["CC(=O)OCC1OC(n2c(N)c(C#N)c(-c3ccc(C)cc3)c(C#N)c2=S)C(OC(C)=O)C(OC(C)=O)C1OC(C)=O (stereo unspecified)", "T47D", "f"],
  ["O[C@@H]1[C@H](OC2c3ccccc3-c3ccccc32)[C@H](OCc2ccccc2)[C@@H]2OC[C@H]1O2", "T47D", "f"],
  ["CSc1c(C)[n+]([O-])c2cc(Cl)c(Cl)cc2[n+]1[O-]", "T47D", "f"],
  ["O=c1[nH]c2nc[nH]c2c(=O)n1C1CCCCC1", "T47D", "f"],
  ["O=C(O)CNc1ccc(Cl)c(Cl)c1", "T47D", "f"],
  ["CN(C)CCNC(=O)c1cccc2c(NCCN(C)C)c3ccccc3nc12", "T47D", "f"],
  ["C=C(C(=O)O[C@H]1C(=O)C2=C(C)CCC3C(=C)C(=O)O[C@@H]3C2[C@]1(C)O)C1CC[C@]2(C)CCCC(=C)[C@H]2C1 (stereo partly specified)", "T47D", "f"],
  ["CCCCCCc1cc2cc(C(=O)Nc3ccccc3F)c(=N)oc2cc1O", "T47D", "f"],
  ["O=c1onc2c3ccccc3ncn12", "T47D", "f"],
  ["O=C(OC[C@H]1C[C@H]2C(=O)OCCC[C@H]2O1)c1ccccc1", "T47D", "f"],
  ["CC(C)(C)NC1=NC(C(F)(F)F)(C(F)(F)F)NC(=O)N1", "T47D", "f"],
  ["COc1ccccc1NCc1cccc2c(=O)c3ccc(Cl)cc3oc12", "T47D", "f"],
  ["O=C(O[C@H](/C=C/c1ccccc1)P1(=O)N(Cc2ccccc2)[C@@H]2CCCC[C@H]2N1Cc1ccccc1)c1ccccc1", "T47D", "t"],
  ["Oc1nc2c(c(-c3ccc(Br)cc3)n1)COC/C2=C\\c1ccc(Br)cc1", "T47D", "f"],
  ["COc1cc2nc(-c3ccccc3F)nc(O)c2cc1OC", "T47D", "f"],
  ["O=c1ssc2c1Nc1c(ssc1=O)S2", "T47D", "f"],
  ["CCNc1cc2c3c(c1)CCN3CCC2", "T47D", "f"],
  ["CC(C)=CCC[C@]1(C)CC[C@]2(C)C3CCC(=C(C)C)[C@@H](CCCO)[C@]3(C)CC[C@@]2(C)C1 (stereo partly specified)", "T47D", "f"],
  ["COCC1OC(OC2OCC3OC4(OCC(O)(C(C)OC)C5OCOC54)OC3C2OC)C(OC)C(O)C1OC1OC(C)C(OC)C(OC2OC(C)C3OC4(CC(O)C(OC5CC(OC6CC(C)([N+](=O)[O-])C(OC)C(C)O6)C(OC(=O)c6c(C)c(Cl)c(O)c(Cl)c6OC)C(C)O5)C(C)O4)OC3(C)C2O)C1O (stereo unspecified)", "T47D", "f"],
  ["NNC(=O)c1ccccc1NC(=O)/C(=C/c1ccccc1O)NC(=O)c1ccccc1", "T47D", "f"]
]}
